The values you see were collected from patent US10538555B2.

The compounds listed here are annotated with their pIC50.
- systemName: Human PD-L1/PD-1 (Homo sapiens, UniProt Q9NZQ7)
- Construct: TVMV protease cleavage site (C); made in house; host or cells: HEK293T cells
- Sequence (Q9NZQ7 with tags, fused parts or gaps): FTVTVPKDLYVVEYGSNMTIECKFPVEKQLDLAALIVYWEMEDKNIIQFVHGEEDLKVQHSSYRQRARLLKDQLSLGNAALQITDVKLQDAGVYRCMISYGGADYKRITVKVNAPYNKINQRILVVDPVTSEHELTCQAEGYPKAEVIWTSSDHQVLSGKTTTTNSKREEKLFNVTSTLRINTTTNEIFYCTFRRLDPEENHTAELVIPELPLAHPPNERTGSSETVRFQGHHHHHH
- methodDescription: HTRF Human PD-L1/PD-1 binding assay (PD-1-Ig/PD-L1-His)
- measurementSetup: PD-L1-His 10 nM, PD-1-Ig 20 nM; read-out: HTRF Human PD-L1/PD-1 Binding Assay IC50
*1 amine or outer side, *2 acyl side, *3 side chain or, on linkers, in order; H or OH if unused. Where a SMILES comes first, the peptide text is derived from it. Bridges are numbered along the chain shown (N, C = ends). [ ]: non-standard residue; d: D form. X4 = CC1(C)CC[C@H](C(=O)[*:2])N1[*:1]; NMeF = CN[C@@H](Cc1ccccc1)C(=O)O; NMeNle = CCCC[C@H](NC)C(=O)O; dThz = O=C(O)[C@H]1CSCN1; Sar = CNCC(=O)O
Entry type: numeric. Quantity: pIC50, the -log10 of concentration in molar units.

Look over these answered cases.
- CCCC[C@H]1C(=O)N(C)CC(=O)N[C@@H](CC(=O)O)C(=O)NC(C(C)c2ccccc2)C(=O)N(C)[C@@H](Cc2ccccc2)C(=O)N[C@@H](Cc2ccc(O)cc2)C(=O)N(C)CC(=O)N[C@@H](Cc2c[nH]c3ccccc23)C(=O)N[C@@H](Cc2ccc(O)cc2)C(=O)N[C@@H](CC(C)C)C(=O)N[C@H](C(=O)NCC(N)=O)CSCC(=O)N[C@@H](Cc2ccccc2)C(=O)N(C)[C@@H](Cc2ccccc2)C(=O)N1C (single isomer, unassigned): 5.00
- CCCC[C@H]1C(=O)N(C)[C@@H](CCCC)C(=O)N[C@@H](CCCN)C(=O)N[C@H](C(=O)NCC(N)=O)CSCC(=O)N[C@@H](Cc2ccc(O)cc2)C(=O)N2CCC[C@]2(C)C(=O)N[C@@H](CC(N)=O)C(=O)N2CCCC2C(=O)N[C@@H](Cc2cnc[nH]2)C(=O)N[C@@H](CC(C)C)C(=O)N2C[C@H](O)C[C@H]2C(=O)N[C@@H](Cc2c[nH]c3ccccc23)C(=O)N[C@@H](CO)C(=O)N[C@@H](Cc2c[nH]c3ccccc23)C(=O)N1C (stereo partly shown): 6.00
- CCCC[C@H]1C(=O)N2CCC[C@@H]2C(=O)N[C@@H](CC(N)=O)C(=O)N[C@@H](C(C)C)C(=O)N(C)[C@@H](Cc2ccccc2)C(=O)N[C@@H](Cc2ccc(O)cc2)C(=O)N2CSC[C@@H]2C(=O)N[C@@H](Cc2c[nH]c3ccccc23)C(=O)N[C@@H](Cc2ccc(O)cc2)C(=O)N[C@@H](CC(C)C)C(=O)N[C@H](C(=O)NCC(N)=O)CSCC(=O)N[C@@H](Cc2ccccc2)C(=O)N(C)[C@@H](Cc2ccccc2)C(=O)N1C [Example 10069] ({CH2CO}-F[NMeF][NMeNle][dP]NV[NMeF]Y[dThz]WYLCG-NH2; thioether N-13): 7.90

API: the following record is the query input.
Ask | Look up pIC50: CCCC[C@H]1C(=O)N(C)CC(=O)N[C@@H](CC(=O)O)C(=O)N[C@@H](C(C)C)C(=O)N(C)[C@@H](Cc2ccccc2)C(=O)N[C@@H](Cc2ccc(O)cc2)C(=O)N2[C@H](CCC2(C)C)C(=O)N[C@@H](Cc2c[nH]c3ccccc23)C(=O)N[C@@H](Cc2ccc(O)cc2)C(=O)N[C@@H](CC(C)C)C(=O)N[C@H](C(=O)NCC(N)=O)CSCC(=O)N[C@@H](Cc2ccccc2)C(=O)N(C)[C@@H](Cc2ccccc2)C(=O)N1C [Example 3210] ({CH2CO}-F[NMeF][NMeNle][Sar]DV[NMeF]Y[X4]WYLCG-NH2; thioether N-13)
Reply | 6.00
